Target: T1, human CD19 protein with a biotinylated AviTag (Acrobiosystems) (human, UniProt P15391 20-291, biotinylated AviTag)
T1 construct: Captured on streptavidin-coated microplate wells; also called biotinylated-AviTag-CD19; hCD19; not shown: AviTag
T1 sequence (looked up): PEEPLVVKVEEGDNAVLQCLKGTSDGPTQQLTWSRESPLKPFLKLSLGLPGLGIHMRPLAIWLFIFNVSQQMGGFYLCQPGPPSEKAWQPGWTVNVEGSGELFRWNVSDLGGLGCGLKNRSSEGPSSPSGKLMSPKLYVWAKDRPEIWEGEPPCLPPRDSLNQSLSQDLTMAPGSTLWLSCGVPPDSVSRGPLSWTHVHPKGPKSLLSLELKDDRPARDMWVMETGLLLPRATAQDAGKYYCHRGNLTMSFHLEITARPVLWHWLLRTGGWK
Assay: phage ELISA, biotinylated AviTag CD19 on streptavidin wells; signal ratio to FMC63 standard
metricName: ELISA hCD19 (ratio FMC63)

scFv 33 (scFv, Canine scFv (VL-linker-VH); also called P3-07) scFv: DIVMTQTPLSLSVSPGEPASISCKASQSLLHSDGNTYLHWYLQKPGQSPQLLIYSVSNRFTGVSDRFSGSGSGTDFTLRISRVEADDTGVYYCGQGTHLPFTFGQGTKLEIKGGSSRSSSSGGGGSGGGGEVQLVESGGDLVKPGGSLRLSCAASGFTFSHYDMNWVRQAPGKGLQWVASIAYDGSNTYYTDAVKGRFTISRDNAKNILFLLVNSLRAEDTAIYYCARGLVYWGQGTLVTVSSASTTAPSVTSGQAGQHHHHHHGAYPYDVPDYAS has a reported ELISA hCD19 (ratio FMC63) of 0.43 ratio to FMC63
